Test system: Monocotyledonous and dicotyledonous test plants
experiment notes: Example B1 herbicidal action, application post-emergence (Table B1a)
Assay type: in vivo
measurement conditions: Digitaria, 250 g/ha, evaluated after 3 weeks, scale 0-10
measurement type: herbicidal damage rating, Digitaria
Numbers only.

See these solved cases before continuing.
Fetch value of herbicidal damage rating, Digitaria on Monocotyledonous and dicotyledonous test plants for Cn1nc(C(F)(F)F)c(C(Br)S(=O)(=O)C2=NOC(C)(C)C2)c1OCC(F)(F)F (stereo not drawn) .
6

Fetch value of herbicidal damage rating, Digitaria on Monocotyledonous and dicotyledonous test plants for COC(=O)C(Cl)(c1c(F)cccc1F)S(=O)(=O)C1=NOC(C)(C)C1 (stereo not drawn) .
3

Record herbicidal damage rating, Digitaria for all entries; do not skip any.
1. CC1(C)CC(S(=O)(=O)C(F)(Br)c2c(F)cccc2F)=NO1 (stereo not drawn)
2. Cn1nc(C(F)(F)F)c(C(F)(F)S(=O)(=O)C2=NOC(C)(C)C2)c1Cl
3. Cc1ccccc1C(F)(Cl)S(=O)(=O)C1=NOC(C)(C)C1 (racemic)
4. CC1(C)CC(S(=O)(=O)C(F)(F)c2cccc(F)c2F)=NO1
5. CC1(C)CC(S(=O)(=O)C(Cl)(Br)c2c(F)cccc2F)=NO1 (stereo not drawn)
6. CC1(C)CC([S+]([O-])C(Cl)c2c(F)cccc2Cl)=NO1 (single isomer, unassigned)

7
7
8
8
7
5

Fetch value of herbicidal damage rating, Digitaria on Monocotyledonous and dicotyledonous test plants for CC1(C)CC(S(=O)(=O)C(F)(Cl)c2ccccc2C(F)(F)F)=NO1 (racemic) .
8
